System: E. cloacae 963
Test: in vitro antibacterial activity, agar plate dilution method (MIC)
Type: cell-based
Conditions: Enterobacter cloacae; E. cloacae 963; 10^6 CFU/ml, MH agar, 37° C., 16 hours; read-out: Minimum Inhibitory Concentration (MIC)
Quick reference: MIC of the listed items.

compound	MIC
CO/N=C(\C(=O)N[C@@H]1C(=O)N2C(C(=O)[O-])=C(OCc3cc[n+](C)cc3)CS[C@H]12)c1csc(N)n1 [Example 32]	0.1 µg/mL
C[n+]1ccc(COC2=C(C(=O)[O-])N3C(=O)[C@@H](NC(=O)/C(=N\OCc4ccccc4CC(=O)O)c4csc(N)n4)[C@H]3SC2)cc1 [Example 40]	0.39 µg/mL
C[n+]1ccc(COC2=C(C(=O)[O-])N3C(=O)[C@@H](NC(=O)/C(=N\OC(C(=O)O)c4ccc(O)c(O)c4)c4csc(N)n4)[C@H]3SC2)cc1 (single isomer, unassigned) [Example 38]	0.039 µg/mL
CCO/N=C(\C(=O)N[C@@H]1C(=O)N2C(C(=O)[O-])=C(OCc3cc[n+](CC(=O)O)cc3)CS[C@H]12)c1csc(N)n1 [Example 51]	0.1 µg/mL
CC(C)(O/N=C(\C(=O)N[C@@H]1C(=O)N2C(C(=O)O)=C(OCc3ccncc3)CS[C@H]12)c1csc(N)n1)C(=O)O [Example 4]	0.039 µg/mL
C=C(O/N=C(\C(=O)N[C@@H]1C(=O)N2C(C(=O)[O-])=C(OCc3cc[n+](C)cc3)CS[C@H]12)c1csc(N)n1)C(=O)O [Example 37]	0.025 µg/mL

* * *

Test system: E. coli NIHJ JC2
Assay: in vitro antibacterial activity, agar plate dilution method (MIC)
Assay type: cell-based
Details: Escherichia coli, NIHJJC2; E. coli NIHJ JC2; 10^6 CFU/ml, MH agar, 37° C., 16 hours; read-out: Minimum Inhibitory Concentration (MIC)

compound	MIC (µg/mL)
CO/N=C(\C(=O)N[C@@H]1C(=O)N2C(C(=O)[O-])=C(OCc3cccc[n+]3C)CS[C@H]12)c1csc(N)n1 [Example 44]	0.39
C[n+]1ccc(COC2=C(C(=O)[O-])N3C(=O)[C@@H](NC(=O)/C(=N\OCc4ccccc4CC(=O)O)c4csc(N)n4)[C@H]3SC2)cc1 [Example 40]	0.39
C[n+]1ccc(COC2=C(C(=O)[O-])N3C(=O)[C@@H](NC(=O)/C(=N\OC(C(=O)O)c4ccc(O)c(O)c4)c4csc(N)n4)[C@H]3SC2)cc1 (single isomer, unassigned) [Example 38]	0.039
CCO/N=C(\C(=O)N[C@@H]1C(=O)N2C(C(=O)[O-])=C(OCc3cc[n+](CC(=O)O)cc3)CS[C@H]12)c1csc(N)n1 [Example 51]	0.2
CC(C)(O/N=C(\C(=O)N[C@@H]1C(=O)N2C(C(=O)O)=C(OCc3ccncc3)CS[C@H]12)c1csc(N)n1)C(=O)O [Example 4]	0.39
CO/N=C(\C(=O)N[C@@H]1C(=O)N2C(C(=O)O)=C(OCc3ccc(C(N)=O)cc3)CS[C@H]12)c1csc(N)n1 [Example 14]	0.39
CO/N=C(\C(=O)N[C@@H]1C(=O)N2C(C(=O)[O-])=C(OCc3cc[n+](C)cc3)CS[C@H]12)c1csc(N)n1 [Example 32]	0.1
C[n+]1ccc(COC2=C(C(=O)[O-])N3C(=O)[C@@H](NC(=O)/C(=N\OC(C)(C)C(=O)O)c4csc(N)n4)[C@H]3SC2)cc1 [Example 36]	0.05
